Ref: the RNAGym collection of RNA variant scans (doi:10.7554/elife.90254)

Documented self-cleavage across a set of variants
B1: LINE1-full (parent)
chain: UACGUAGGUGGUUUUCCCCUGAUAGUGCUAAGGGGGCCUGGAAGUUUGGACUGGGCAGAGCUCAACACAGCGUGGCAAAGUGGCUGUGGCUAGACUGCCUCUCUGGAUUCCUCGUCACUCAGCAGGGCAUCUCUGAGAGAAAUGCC

# Variants of: B1
# protocol.details: self-cleavage, relative activity (ratio to wild type); higher = more cleavage; in vitro, sequencing; the parent is a self-cleaving ribozyme
Provide a numeric answer; units are not to be included.

Look over these answered cases.
[
  {
    "chain.sequence": "UACGUAGGUGGUUUUCCCCUGAUAGUGCUAAGGGGGCCUGGAAGUUUGAACUGGGCAGAGCUCAACACAGCGUGGCAAAGUGGCUGUGGCUAGACUGCCUCUCUGGAUUCCCCGUCACUCAGCAGGGCAUCUCUGAGAGAAAUGCC [G49A U112C]",
    "self-cleavage": 1.45
  },
  {
    "chain.sequence": "UACGUAGGUGGUUUUCCCCUGAUAGUGCUAAGGGGGCCUGGAAGUUUGGACGGGGCAGAGCUCAACACAGCGUGGCAAAGUGGCAGUGGCUAGACUGCCUCUCUGGAUUCCUCGUCACUCAGCAGGGCAUCUCUGAGAGAAAUGCC [U52G U85A]",
    "self-cleavage": 0.17
  },
  {
    "chain.sequence": "UACGUAGGUGGUUUUCCCCUGAUAGUGCUAAGGGGGCCUGGAAGGUUGGACUGGGCAGAGCUCAACACAGCGUGGCAAAGUGGCGGUGGCUAGACUGCCUCUCUGGAUUCCUCGUCACUCAGCAGGGCAUCUCUGAGAGAAAUGCC [U45G U85G]",
    "self-cleavage": 0.28
  },
  {
    "chain.sequence": "UACGUAGGUGGUUUUCCCCUGAUAGUGCUAAGGGGGCCUGGAAGUUUGGACUGGGCAGAGCACAACACAGCGUGGCAAAGUGGCUGUGGCUAGACUGCCUCUCUGGAUUCCUCGUCACUCAGCAGGGCGUCUCUGAGAGAAAUGCC [U62A A129G]",
    "self-cleavage": 0.06
  },
  {
    "chain.sequence": "UACGUAGGUGGUUUUCCCCUGAUAGUGCUAAGGGGGCCUGGAAGUUUGGACUGGGCAGAGCUUAACACAGCGUGGCAAAGUGGCUGUGGCUAGACUGCCUCUCUGGAUUCCUCGUCACUCAGCAGGGCGUCUCUGAGAGAAAUGCC [C63U A129G]",
    "self-cleavage": 0.3
  }
]

The record that follows has no self-cleavage shown yet.
What does the data say about its self-cleavage? Entry: UACGUAGGUGGUUUUCCCCUGAUAGUGCUAUGGGGGCCUGGAAGUUUGGACUGGGCAGAGCUCAACACAGCGUGGCAAAGUGGCUGUGGCUAGACUGCCUCUCUGGAUUCCUCGUCACUCAGCAGGGCAUCUCUGGGAGAAAUGCC [A31U A136G]
0.79
